Target: P-glycoprotein (ABCB1) (Homo sapiens)
Experiment: Inhibition of human P-glycoprotein transfected in pig LLC-GA5-COL150 cells assessed as quinidine transport from apical to basolateral side at 2 uM preincubated for 30 mins followed by quinidine addition to apical side measured after 60 mins
Settings: LLC-PK1, probe quinidine
metric name: inhibition at 1 h, 2 µM (%)
// note: answer is a bare numeric in %

Briefly, inhibition at 1 h, 2 µM measured for COc1cc2c(cc1OC)CN(CCc1ccc(NC(=O)c3cccc4c(=O)c5cccc(OC)c5[nH]c34)cc1)CC2 : 100

====

Molecular target: P-glycoprotein (ABCB1) (Homo sapiens, UniProt P08183)
Sequence (P08183 whole entry): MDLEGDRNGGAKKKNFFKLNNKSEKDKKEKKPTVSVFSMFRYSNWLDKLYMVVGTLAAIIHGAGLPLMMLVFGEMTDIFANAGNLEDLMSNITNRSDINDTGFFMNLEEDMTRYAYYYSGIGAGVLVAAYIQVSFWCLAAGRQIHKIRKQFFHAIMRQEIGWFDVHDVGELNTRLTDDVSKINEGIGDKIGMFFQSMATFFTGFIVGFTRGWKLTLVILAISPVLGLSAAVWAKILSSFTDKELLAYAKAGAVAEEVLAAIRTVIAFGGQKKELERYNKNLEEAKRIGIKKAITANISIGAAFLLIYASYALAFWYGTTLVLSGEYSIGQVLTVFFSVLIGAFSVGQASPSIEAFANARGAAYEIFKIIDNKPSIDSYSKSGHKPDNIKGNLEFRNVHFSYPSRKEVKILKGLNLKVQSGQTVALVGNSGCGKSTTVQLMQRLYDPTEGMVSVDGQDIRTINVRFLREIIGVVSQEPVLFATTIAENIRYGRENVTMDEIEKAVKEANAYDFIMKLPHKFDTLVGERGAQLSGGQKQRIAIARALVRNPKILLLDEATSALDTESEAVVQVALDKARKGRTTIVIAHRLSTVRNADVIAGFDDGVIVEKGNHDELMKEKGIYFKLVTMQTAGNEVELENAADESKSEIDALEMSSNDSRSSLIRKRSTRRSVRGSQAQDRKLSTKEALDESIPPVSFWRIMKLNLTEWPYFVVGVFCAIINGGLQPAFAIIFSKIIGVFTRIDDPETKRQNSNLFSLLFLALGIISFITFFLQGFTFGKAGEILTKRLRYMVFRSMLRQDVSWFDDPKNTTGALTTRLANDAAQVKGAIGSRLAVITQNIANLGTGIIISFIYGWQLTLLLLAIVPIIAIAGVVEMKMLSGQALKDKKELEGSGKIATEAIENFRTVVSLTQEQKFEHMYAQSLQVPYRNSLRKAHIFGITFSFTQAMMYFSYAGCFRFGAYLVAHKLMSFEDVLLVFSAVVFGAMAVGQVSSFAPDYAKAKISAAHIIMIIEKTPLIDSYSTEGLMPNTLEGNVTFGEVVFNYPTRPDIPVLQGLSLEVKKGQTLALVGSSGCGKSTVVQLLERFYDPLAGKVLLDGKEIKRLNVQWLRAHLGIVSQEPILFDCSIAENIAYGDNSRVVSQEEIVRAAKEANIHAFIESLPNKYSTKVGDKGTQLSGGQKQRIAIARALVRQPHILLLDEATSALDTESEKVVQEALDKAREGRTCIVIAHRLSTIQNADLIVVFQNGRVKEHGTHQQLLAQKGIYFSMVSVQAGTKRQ
Test: Inhibition of human P-glycoprotein transfected in pig LLC-GA5-COL150 cells assessed as quinidine transport from apical to basolateral side at 30 uM preincubated for 30 mins followed by quinidine addition to apical side measured after 60 mins
Format: cell-based
Details: LLC-PK1, probe quinidine
// 0 (no) strictly below 5% in inhibition at 1 h, 30 µM; 1 (yes) otherwise

Record excerpt, results attached:
| molecule | tested target | category label |
| --- | --- | --- |
| Cc1cc(C)cc(C(=O)N(NC(=O)c2ccc(C(F)(F)F)cc2)C(C)(C)C)c1 | P-glycoprotein (ABCB1) (Homo sapiens, UniProt P08183) | 0 (no) |
| COc1cccc(C(=O)NN(C(=O)c2cc(C)cc(C)c2)C(C)(C)C)c1C [METHOXYFENOZIDE] | P-glycoprotein (ABCB1) (Homo sapiens, UniProt P08183) | 1 (yes) |
| CCCc1ccc(C(=O)NN(C(=O)c2cc(C)cc(C)c2)C(C)(C)C)cc1 | P-glycoprotein (ABCB1) (Homo sapiens, UniProt P08183) | 1 (yes) |
| CCc1ccc(C(=O)NN(C(=O)c2ccccc2Cl)C(C)(C)C)cc1 | P-glycoprotein (ABCB1) (Homo sapiens, UniProt P08183) | 1 (yes) |
| CC(C)(C)N(NC(=O)c1ccccc1Cl)C(=O)c1ccccc1Cl | P-glycoprotein (ABCB1) (Homo sapiens, UniProt P08183) | 1 (yes) |
| Cc1cc(C)cc(C(=O)N(NC(=O)c2cc(F)c(F)cc2F)C(C)(C)C)c1 | P-glycoprotein (ABCB1) (Homo sapiens, UniProt P08183) | 0 (no) |

Is inhibition at 1 h, 30 µM at least 5%? Consider COc1cccc(C(=O)NN(C(=O)c2ccccc2Cl)C(C)(C)C)c1C
1 (yes)

Is inhibition at 1 h, 30 µM at least 5%? Consider Cc1cc(C)cc(C(=O)NN(C(=O)c2ccccc2Cl)C(C)(C)C)c1
1 (yes)

Quick check, inhibition at 1 h, 30 µM >= 5%? CC(C)(C)N(NC(=O)c1cccc(Cl)c1)C(=O)c1ccccc1Cl
1 (yes)

Is inhibition at 1 h, 30 µM for CC(C)(C)N(NC(=O)c1ccccc1)C(=O)c1ccccc1Cl at or above 5%?
1 (yes)

====

Biological target: P-glycoprotein (ABCB1) (Homo sapiens)
Assay: Inhibition of human P-glycoprotein transfected in pig LLC-GA5-COL150 cells assessed as quinidine transport from apical to basolateral side at 30 uM preincubated for 30 mins followed by quinidine addition to apical side measured after 60 mins
Type: cell-based
Settings: LLC-PK1, probe quinidine
metric name: inhibition at 1 h, 30 µM (%)
Please reply with the bare figure in % and do not write the unit itself.

Some compounds with recorded inhibition at 1 h, 30 µM:
| compound | tested target | result units | inhibition at 1 h, 30 µM |
| --- | --- | --- | --- |
| Cc1cc(C)cc(C(=O)N(NC(=O)c2ccccc2C)C(C)(C)C)c1 | P-glycoprotein (ABCB1) (Homo sapiens) | % | 22.3 |
| CC(C)(C)N(NC(=O)c1ccccc1-c1ccccc1)C(=O)c1ccccc1Cl | P-glycoprotein (ABCB1) (Homo sapiens) | % | 80.3 |
| COc1cccc(C(=O)NN(C(=O)c2cc(C)cc(C)c2)C(C)(C)C)c1 | P-glycoprotein (ABCB1) (Homo sapiens) | % | 34.2 |
| Cc1ccc(C)c(C(=O)NN(C(=O)c2ccccc2Cl)C(C)(C)C)c1 | P-glycoprotein (ABCB1) (Homo sapiens) | % | 26.8 |
| Cc1cc(C)cc(C(=O)N(NC(=O)c2ccccc2)C(C)(C)C)c1 | P-glycoprotein (ABCB1) (Homo sapiens) | % | 17 |

Below: the item to evaluate.
inhibition at 1 h, 30 µM in this record for CC(C)(C)N(NC(=O)c1cccc(F)c1)C(=O)c1ccccc1Cl : 7.6

====

Each entry below carries its reported logP.
Experiment: Lipophilicity , logP of the compound
Format: physicochemical
Conditions: octanol/water
Lab note: jot down the number only; don't add units.

Solved entries:
| structure smiles | logP |
| --- | --- |
| Cc1cc(C)cc(C(=O)N(NC(=O)c2cc(F)c(F)cc2F)C(C)(C)C)c1 | 3.71 |
| Cc1cc(C)cc(C(=O)N(NC(=O)c2ccc(C)c(C)c2C)C(C)(C)C)c1 | 4.88 |
| Cc1cc(C)cc(C(=O)NN(C(=O)c2ccccc2Cl)C(C)(C)C)c1 | 3.67 |
| Cc1cc(C)cc(C(=O)N(NC(=O)c2cccc(O)c2C)C(C)(C)C)c1 | 3.84 |
| CCOc1cccc(C(=O)NN(C(=O)c2cc(C)cc(C)c2)C(C)(C)C)c1 | 4.28 |

Note to self: logP recorded for CC(C)(C)N(NC(=O)c1c(F)cccc1Cl)C(=O)c1ccccc1Cl was 2.67

Record summary for CC(C)(C)N(NC(=O)c1cccc(Br)c1)C(=O)c1ccccc1Cl : reported logP = 3.62

CC(C)(C)N(NC(=O)c1ccccc1-c1ccccc1)C(=O)c1ccccc1Cl has a reported logP of 3.77

logP for COc1cccc(C(=O)NN(C(=O)c2cc(C)cc(C)c2)C(C)(C)C)c1 is 3.75

Field logP (entry COc1cccc(C(=O)NN(C(=O)c2ccccc2Cl)C(C)(C)C)c1 ) reads 2.81

====

Attribute: inhibition at 1 h, 30 µM
Target: P-glycoprotein (ABCB1) (Homo sapiens)
Experiment: Inhibition of human P-glycoprotein transfected in pig LLC-GA5-COL150 cells assessed as quinidine transport from apical to basolateral side at 30 uM preincubated for 30 mins followed by quinidine addition to apical side measured after 60 mins
Format: cell-based
Conditions: LLC-PK1, probe quinidine

Sample CC(C)(C)N(NC(=O)c1c(F)cccc1F)C(=O)c1ccccc1Cl ; inhibition at 1 h, 30 µM observed: 4.2%

Lab note: measured inhibition at 1 h, 30 µM of Cc1cccc(C(=O)NN(C(=O)c2cc(C)cc(C)c2)C(C)(C)C)c1 was 36.8%

The recorded inhibition at 1 h, 30 µM for Cc1cc(C)cc(C(=O)N(NC(=O)c2ccc(F)c(F)c2F)C(C)(C)C)c1 is 2.5%

The compound CC(C)(C)N(NC(=O)c1cccc(C(F)(F)F)c1)C(=O)c1ccccc1Cl showed inhibition at 1 h, 30 µM equal to 33.4%

// recorded inhibition at 1 h, 30 µM for Cc1cc(C)cc(C(=O)N(NC(=O)c2cccc(O)c2)C(C)(C)C)c1 : 1%

Documented inhibition at 1 h, 30 µM of CC(C)(C)N(NC(=O)c1cc(Cl)cc(Cl)c1)C(=O)c1ccccc1Cl : 97.2%

The recorded inhibition at 1 h, 30 µM for entry CC(C)(C)N(NC(=O)c1ccccc1F)C(=O)c1ccccc1Cl equals 5.9%

====

Quick reference for logP among some molecules
Experiment: Lipophilicity , logP of the compound
Assay type: physicochemical
Settings: octanol/water
Please give the numeric answer without any surrounding text.

Example entries begin here.
| structure smiles | logP |
| --- | --- |
| Cc1cc(C)cc(C(=O)N(NC(=O)c2ccc(C(F)(F)F)cc2)C(C)(C)C)c1 | 4.66 |
| Cc1ccc(C(=O)NN(C(=O)c2cc(C)cc(C)c2)C(C)(C)C)cc1 | 3.95 |

logP for CC(C)(C)N(NC(=O)c1cccc([N+](=O)[O-])c1)C(=O)c1ccccc1Cl is 2.73

In plain terms, Cc1ccc(C)c(C(=O)NN(C(=O)c2ccccc2Cl)C(C)(C)C)c1 has a documented logP of 3.4

Note to self: logP recorded for CC(C)(C)N(NC(=O)c1c(F)cccc1F)C(=O)c1ccccc1Cl was 2.35

logP in this record for CSc1ccccc1C(=O)NN(C(=O)c1ccccc1Cl)C(C)(C)C : 2.84

Looking up Cc1cc(C)cc(C(=O)N(NC(=O)c2ccc(F)c(F)c2F)C(C)(C)C)c1 , I see its logP listed as 3.64

The value of logP measured for the molecule CC(C)(C)N(NC(=O)c1cccc(C(F)(F)F)c1)C(=O)c1ccccc1Cl turned out to be 3.7

====

Molecular target: ATP-dependent translocase ABCB1 (Homo sapiens)
Sequence (P08183 whole entry): as above
Assay: Inhibition of human P-glycoprotein transfected in pig LLC-GA5-COL150 cells assessed as quinidine transport from apical to basolateral side preincubated for 30 mins followed by quinidine addition to apical side measured after 60 mins
metric name: IC50 (µM)
Value expressed in µM; do not type the unit.

Observe how each entry below is paired with its result.
| molecule | metric name | recorded measurement |
| --- | --- | --- |
| CCOc1cccc(C(=O)NN(C(=O)c2cc(C)cc(C)c2)C(C)(C)C)c1 | IC50 | 39.9 |
| CCc1ccc(C(=O)NN(C(=O)c2cc(C)cc(C)c2)C(C)(C)C)cc1 [TEBUFENOZIDE] | IC50 | 21.5 |

Summary for this molecule, COc1cccc(C(=O)NN(C(=O)c2cc(C)cc(C)c2)C(C)(C)C)c1C [METHOXYFENOZIDE] : IC50 is 44.3

All figures here come from ChEMBL document CHEMBL3813651.
